System: Pseudomonas aeruginosa PAO1
ASSAY_METHOD_TEXT: Inhibition of beta-lactamase activity in Pseudomonas aeruginosa PAO1 deltaC+pUCP-(PDC-5) assessed as MIC for cefpodoxime antibacterial activity at 4 mg/L by broth microdilution method
MEASUREMENT_TYPE: MIC (µg/mL)

>  <COMPOUND>
NC(=O)[C@@H]1CC[C@@H]2CN1C(=O)N2OS(=O)(=O)O [AVIBACTAM SODIUM]

>  <TARGET_ENTITY>
Pseudomonas aeruginosa PAO1

>  <MEASUREMENT_TYPE>
MIC

>  <RESULT>
2

$$$$
>  <COMPOUND>
C[C@]1(COC(=O)Cc2ccc(O)c(O)c2)[C@H](C(=O)O)N2C(=O)/C(=C/c3ccccn3)[C@H]2S1(=O)=O

>  <TARGET_ENTITY>
Pseudomonas aeruginosa PAO1

>  <MEASUREMENT_TYPE>
MIC

>  <RESULT>
2

$$$$
>  <COMPOUND>
C[C@]1(COC(=O)Cc2ccc(O)c(O)c2)[C@H](C(=O)O)N2C(=O)/C(=C/c3ccc(F)cn3)[C@H]2S1(=O)=O

>  <TARGET_ENTITY>
Pseudomonas aeruginosa PAO1

>  <MEASUREMENT_TYPE>
MIC

>  <RESULT>
2

$$$$
>  <COMPOUND>
C[C@]1(COC(=O)Cc2ccc(O)c(O)c2)[C@H](C(=O)O)N2C(=O)/C(=C/c3cc(Br)ccn3)[C@H]2S1(=O)=O

>  <TARGET_ENTITY>
Pseudomonas aeruginosa PAO1

>  <MEASUREMENT_TYPE>
MIC

>  <RESULT>
2

$$$$

====

Test system: Pseudomonas aeruginosa PAO1
ASSAY_METHOD_TEXT: Inhibition of beta-lactamase activity in Pseudomonas aeruginosa PAO1 deltaampD assessed as MIC for cefpodoxime antibacterial activity at 4 mg/L by broth microdilution method
MEASUREMENT_TYPE: MIC (µg/mL)

>  <COMPOUND>
C[C@]1(COC(=O)Cc2ccc(O)c(O)c2)[C@H](C(=O)O)N2C(=O)/C(=C/c3ccccn3)[C@H]2S1(=O)=O

>  <UNIT_OF_MEASUREMENT>
µg/mL

>  <MIC>
2

$$$$
>  <COMPOUND>
C[C@]1(COC(=O)Cc2ccc(O)c(O)c2)[C@H](C(=O)O)N2C(=O)/C(=C/c3cc(Br)ccn3)[C@H]2S1(=O)=O

>  <UNIT_OF_MEASUREMENT>
µg/mL

>  <MIC>
1

$$$$

I: NC(=O)[C@@H]1CC[C@@H]2CN1C(=O)N2OS(=O)(=O)O [AVIBACTAM SODIUM]
II: C[C@]1(COC(=O)Cc2ccc(O)c(O)c2)[C@H](C(=O)O)N2C(=O)/C(=C/c3ccc(F)cn3)[C@H]2S1(=O)=O
I'm curious whether I or II has the smaller MIC number. Which is it? # respond with the chosen item's label
I
(I: 1 µg/mL, II: 8 µg/mL)

====

System: Pseudomonas aeruginosa PAO1
ASSAY_METHOD_TEXT: Inhibition beta lactamase PDC-1 in Pseudomonas aeruginosa PAO1 assessed as inactivation efficiency by measuring acylation rate (k2/K) using nitrocefin as substrate measured by 96 well microtitre plate
MEASUREMENT_TYPE: k2/K inactivation efficiency (M⁻¹ s⁻¹)

>  <COMPOUND>
C[C@]1(COC(=O)Cc2ccc(O)c(O)c2)[C@H](C(=O)O)N2C(=O)/C(=C/c3cc(Br)ccn3)[C@H]2S1(=O)=O

>  <k2/K inactivation efficiency (M⁻¹ s⁻¹)>
6.2

$$$$

A: NC(=O)[C@@H]1CC[C@@H]2CN1C(=O)N2OS(=O)(=O)O [AVIBACTAM SODIUM]
B: C[C@]1(COC(=O)Cc2ccc(O)c(O)c2)[C@H](C(=O)O)N2C(=O)/C(=C/c3ccc(F)cn3)[C@H]2S1(=O)=O
Could you please tell me which of these two has the higher k2/K inactivation efficiency: A or B ? I would appreciate it if you answered with the label of your choice.
A

====

Tested on: Pseudomonas aeruginosa PAO1
ASSAY_METHOD_TEXT: Inhibition of beta-lactamase activity in Pseudomonas aeruginosa PAO1 deltadacB assessed as MIC for cefpodoxime antibacterial activity at 16 mg/L by broth microdilution method
MEASUREMENT_TYPE: MIC (µg/mL)

>  <COMPOUND>
C[C@]1(COC(=O)Cc2ccc(O)c(O)c2)[C@H](C(=O)O)N2C(=O)/C(=C/c3ccccn3)[C@H]2S1(=O)=O

>  <TARGET_ENTITY>
Pseudomonas aeruginosa PAO1

>  <UNIT_OF_MEASUREMENT>
µg/mL

>  <RESULT>
0.5

$$$$
>  <COMPOUND>
C[C@]1(COC(=O)Cc2ccc(O)c(O)c2)[C@H](C(=O)O)N2C(=O)/C(=C/c3cc(Br)ccn3)[C@H]2S1(=O)=O

>  <TARGET_ENTITY>
Pseudomonas aeruginosa PAO1

>  <UNIT_OF_MEASUREMENT>
µg/mL

>  <RESULT>
0.5

$$$$
>  <COMPOUND>
C[C@]1(COC(=O)Cc2ccc(O)c(O)c2)[C@H](C(=O)O)N2C(=O)/C(=C/c3ccc(F)cn3)[C@H]2S1(=O)=O

>  <TARGET_ENTITY>
Pseudomonas aeruginosa PAO1

>  <UNIT_OF_MEASUREMENT>
µg/mL

>  <RESULT>
0.5

$$$$
>  <COMPOUND>
NC(=O)[C@@H]1CC[C@@H]2CN1C(=O)N2OS(=O)(=O)O [AVIBACTAM SODIUM]

>  <TARGET_ENTITY>
Pseudomonas aeruginosa PAO1

>  <UNIT_OF_MEASUREMENT>
µg/mL

>  <RESULT>
0.5

$$$$

====

Listed here are compounds together with their documented K.
Test system: Pseudomonas aeruginosa PAO1
ASSAY_METHOD_TEXT: Inhibition beta lactamase PDC-1 in Pseudomonas aeruginosa PAO1 assessed as deacylation off-rate using nitrocefin as substrate at 30 mins measured by 96 well microtitre plate

Worked examples, 3 compounds total:
>  <COMPOUND>
C[C@]1(COC(=O)Cc2ccc(O)c(O)c2)[C@H](C(=O)O)N2C(=O)/C(=C/c3ccc(F)cn3)[C@H]2S1(=O)=O

>  <K>
9 10^-2/min

$$$$
>  <COMPOUND>
NC(=O)[C@@H]1CC[C@@H]2CN1C(=O)N2OS(=O)(=O)O [AVIBACTAM SODIUM]

>  <K>
2.6 10^-2/min

$$$$
>  <COMPOUND>
C[C@]1(COC(=O)Cc2ccc(O)c(O)c2)[C@H](C(=O)O)N2C(=O)/C(=C/c3ccccn3)[C@H]2S1(=O)=O

>  <K>
9 10^-2/min

$$$$

GET /value?item= `C[C@]1(COC(=O)Cc2ccc(O)c(O)c2)[C@H](C(=O)O)N2C(=O)/C(=C/c3cc(Br)ccn3)[C@H]2S1(=O)=O` &field=K returns 7 10^-2/min

====

System: Pseudomonas aeruginosa PAO1
ASSAY_METHOD_TEXT: Inhibition of beta-lactamase activity in Pseudomonas aeruginosa PAO1 36/14-210 (ST-235) assessed as MIC for cefpodoxime antibacterial activity at 16 mg/L by broth microdilution method
MEASUREMENT_TYPE: MIC (µg/mL)

>  <COMPOUND>
C[C@]1(COC(=O)Cc2ccc(O)c(O)c2)[C@H](C(=O)O)N2C(=O)/C(=C/c3ccc(F)cn3)[C@H]2S1(=O)=O

>  <MEASUREMENT_TYPE>
MIC

>  <RESULT>
8

$$$$

1: C[C@]1(COC(=O)Cc2ccc(O)c(O)c2)[C@H](C(=O)O)N2C(=O)/C(=C/c3cc(Br)ccn3)[C@H]2S1(=O)=O
2: NC(=O)[C@@H]1CC[C@@H]2CN1C(=O)N2OS(=O)(=O)O [AVIBACTAM SODIUM]
For the pair 1 and 2 , which member has the lower MIC number? Reply briefly: the label of your chosen item.
2
(2: 4 µg/mL, 1: 8 µg/mL)

====

System: Pseudomonas aeruginosa PAO1
ASSAY_METHOD_TEXT: Inhibition of beta-lactamase activity in Pseudomonas aeruginosa PAO1 deltaDdeltsDh2deltaDh3 assessed as MIC for cefpodoxime antibacterial activity at 4 mg/L by broth microdilution method
MEASUREMENT_TYPE: MIC (µg/mL)

a: C[C@]1(COC(=O)Cc2ccc(O)c(O)c2)[C@H](C(=O)O)N2C(=O)/C(=C/c3ccc(F)cn3)[C@H]2S1(=O)=O
b: NC(=O)[C@@H]1CC[C@@H]2CN1C(=O)N2OS(=O)(=O)O [AVIBACTAM SODIUM]
c: C[C@]1(COC(=O)Cc2ccc(O)c(O)c2)[C@H](C(=O)O)N2C(=O)/C(=C/c3cc(Br)ccn3)[C@H]2S1(=O)=O
Arrange the above in rising order of MIC. Please list each label once, in the requested order.
c, b, a

====

Test system: Pseudomonas aeruginosa PAO1
ASSAY_METHOD_TEXT: Inhibition of beta-lactamase activity in Pseudomonas aeruginosa PAO1 17/14-017 (ST-235) assessed as MIC for cefpodoxime antibacterial activity at 16 mg/L by broth microdilution method
MEASUREMENT_TYPE: MIC (µg/mL)

Below, 2 compounds whose answers are already recorded.
>  <COMPOUND>
C[C@]1(COC(=O)Cc2ccc(O)c(O)c2)[C@H](C(=O)O)N2C(=O)/C(=C/c3ccccn3)[C@H]2S1(=O)=O

>  <MIC / µg/mL>
2

$$$$
>  <COMPOUND>
NC(=O)[C@@H]1CC[C@@H]2CN1C(=O)N2OS(=O)(=O)O [AVIBACTAM SODIUM]

>  <MIC / µg/mL>
4

$$$$

1: C[C@]1(COC(=O)Cc2ccc(O)c(O)c2)[C@H](C(=O)O)N2C(=O)/C(=C/c3ccc(F)cn3)[C@H]2S1(=O)=O
2: C[C@]1(COC(=O)Cc2ccc(O)c(O)c2)[C@H](C(=O)O)N2C(=O)/C(=C/c3cc(Br)ccn3)[C@H]2S1(=O)=O
Of the pair 1 and 2 , name the member with the lesser recorded MIC. Write down the label attached to your selection.
2
